target-of-assay: Calcium/calmodulin-dependent protein kinase type IV (Homo sapiens) (UniProt Q16566)
Sequence (Q16566 whole entry): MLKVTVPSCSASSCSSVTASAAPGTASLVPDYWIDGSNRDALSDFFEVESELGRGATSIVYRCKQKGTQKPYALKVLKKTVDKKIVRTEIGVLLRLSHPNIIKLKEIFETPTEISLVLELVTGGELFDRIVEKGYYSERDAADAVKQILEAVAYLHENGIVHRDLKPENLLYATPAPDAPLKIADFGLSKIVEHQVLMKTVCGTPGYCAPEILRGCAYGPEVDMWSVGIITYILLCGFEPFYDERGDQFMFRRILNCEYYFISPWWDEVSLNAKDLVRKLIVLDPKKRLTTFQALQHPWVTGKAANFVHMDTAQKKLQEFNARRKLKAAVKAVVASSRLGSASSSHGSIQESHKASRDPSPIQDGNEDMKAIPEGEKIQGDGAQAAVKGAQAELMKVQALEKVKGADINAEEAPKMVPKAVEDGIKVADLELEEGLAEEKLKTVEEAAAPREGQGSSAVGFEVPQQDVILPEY
condition-info: at 1 µM
Assign residual activity to each entry below.
Give bare numbers, in %.

Record excerpt, results attached:
smiles-text: Nc1n[nH]c2nnc(-c3c(-c4ccccc4)nn4ccccc34)cc12
measured-number: 95

smiles-text: COc1cc2ncnc(Nc3ccc(O)c(Br)c3)c2cc1OC
measured-number: 122

smiles-text: NC(=O)c1ccc2[nH]c(-c3ccc(Oc4ccc(Cl)cc4)cc3)nc2c1
measured-number: 108

smiles-text: COc1ccc(C(=O)Nc2sc3c(c2C(N)=O)CCCC3)cc1OC
measured-number: 107

smiles-text: Cn1cnc2cc3c(Nc4cccc(Br)c4)ncnc3cc21
measured-number: 105

Look at each compound and report its residual activity.
1. COc1cc2ncnc(N3CCN(C(=O)Nc4ccc(Oc5ccccc5)cc4)CC3)c2cc1OC
2. N#Cc1cnc2cnc(NCc3cccnc3)cc2c1Nc1ccc(F)c(Cl)c1

## Result
[122, 98]

---

target-of-assay: ALK tyrosine kinase receptor (Homo sapiens) (UniProt Q9UM73)
Sequence (Q9UM73 19-1620 limits assumed): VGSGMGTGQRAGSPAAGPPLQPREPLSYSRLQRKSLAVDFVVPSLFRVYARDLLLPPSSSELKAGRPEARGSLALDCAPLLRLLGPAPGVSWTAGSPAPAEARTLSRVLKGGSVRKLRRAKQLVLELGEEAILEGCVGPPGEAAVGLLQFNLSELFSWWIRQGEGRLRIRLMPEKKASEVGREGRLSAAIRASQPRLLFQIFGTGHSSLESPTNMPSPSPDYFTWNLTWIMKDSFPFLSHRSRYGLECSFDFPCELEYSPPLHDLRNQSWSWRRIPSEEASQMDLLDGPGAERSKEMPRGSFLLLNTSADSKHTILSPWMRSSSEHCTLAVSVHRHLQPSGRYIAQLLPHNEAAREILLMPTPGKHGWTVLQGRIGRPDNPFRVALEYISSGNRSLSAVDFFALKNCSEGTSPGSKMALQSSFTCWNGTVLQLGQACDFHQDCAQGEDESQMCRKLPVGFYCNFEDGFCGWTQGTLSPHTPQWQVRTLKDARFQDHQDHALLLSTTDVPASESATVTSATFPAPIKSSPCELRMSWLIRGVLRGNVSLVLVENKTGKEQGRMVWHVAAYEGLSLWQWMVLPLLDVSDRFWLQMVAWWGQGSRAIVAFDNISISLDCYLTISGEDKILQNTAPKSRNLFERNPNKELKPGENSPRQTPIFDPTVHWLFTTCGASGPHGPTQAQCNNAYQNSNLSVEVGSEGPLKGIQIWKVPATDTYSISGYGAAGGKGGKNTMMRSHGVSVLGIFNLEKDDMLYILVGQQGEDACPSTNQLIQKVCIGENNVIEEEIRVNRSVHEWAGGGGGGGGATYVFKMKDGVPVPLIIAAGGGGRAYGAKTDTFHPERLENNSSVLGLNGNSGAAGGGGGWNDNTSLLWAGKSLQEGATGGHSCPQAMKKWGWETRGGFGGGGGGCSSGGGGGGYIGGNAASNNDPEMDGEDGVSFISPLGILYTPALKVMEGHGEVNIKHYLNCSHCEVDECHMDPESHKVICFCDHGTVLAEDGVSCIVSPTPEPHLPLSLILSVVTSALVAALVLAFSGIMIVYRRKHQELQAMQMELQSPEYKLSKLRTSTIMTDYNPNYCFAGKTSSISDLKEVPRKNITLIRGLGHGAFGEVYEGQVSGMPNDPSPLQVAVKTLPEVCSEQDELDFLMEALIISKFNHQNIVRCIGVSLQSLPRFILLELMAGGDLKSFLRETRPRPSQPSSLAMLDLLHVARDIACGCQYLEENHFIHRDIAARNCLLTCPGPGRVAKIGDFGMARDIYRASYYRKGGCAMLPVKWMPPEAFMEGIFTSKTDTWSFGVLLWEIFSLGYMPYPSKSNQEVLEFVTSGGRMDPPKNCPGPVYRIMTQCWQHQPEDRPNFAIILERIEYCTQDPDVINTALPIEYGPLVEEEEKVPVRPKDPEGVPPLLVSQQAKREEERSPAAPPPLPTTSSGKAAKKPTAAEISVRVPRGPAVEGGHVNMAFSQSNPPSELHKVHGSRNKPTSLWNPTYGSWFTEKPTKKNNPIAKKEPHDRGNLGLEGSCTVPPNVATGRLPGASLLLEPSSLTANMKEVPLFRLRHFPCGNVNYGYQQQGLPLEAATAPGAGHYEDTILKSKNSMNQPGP
condition-info: at 10 µM
Binary call on residual activity with cut-off 70%: strictly below means 1.0, and equality or higher means 0.0.

molecule: Nc1ccc2ncnc(NCCc3ccc(Oc4ccccc4)cc3)c2c1
class-assignment: 1.0

molecule: Oc1ccc(-c2nc(-c3ccc(F)cc3)c(-c3ccncc3)[nH]2)cc1
class-assignment: 0.0

molecule: Oc1ccc(Nc2nc(-c3ccc(Cl)cc3)cs2)cc1
class-assignment: 1.0

molecule: CCN(CC)CCCCN1c2ccccc2Oc2ccc(Cl)cc21
class-assignment: 0.0

molecule: Oc1n[nH]c2nnc(-c3c(-c4ccccc4)nn4ccccc34)cc12
class-assignment: 0.0

In the following, a different molecule is considered.
## Task In plain terms, does CO[C@@H]1[C@H](N(C)C(=O)c2ccccc2)C[C@H]2O[C@]1(C)n1c3ccccc3c3c4c(c5c6ccccc6n2c5c31)C(=O)NC4 come in under 70% for residual activity?
## Result 1.0

---

So I've got a bunch of compounds here, and I need their residual activity values.
target-of-assay: Protein kinase C alpha type (Homo sapiens) (UniProt P17252)
condition-info: at 10 µM
Give bare numbers, in %.

Some solved cases for reference:
smiles-text: O=C(Nc1cccc(Nc2cc(Nc3cccc(C(F)(F)F)c3)ncn2)c1)C1CC1
measured-number: 101

smiles-text: N#Cc1cnc2cnc(NCc3cccnc3)cc2c1Nc1ccc(F)c(Cl)c1
measured-number: 55

smiles-text: O=C1NC(=O)c2cc(Nc3ccc(F)cc3)c(Nc3ccc(F)cc3)cc21
measured-number: 101

Batch request: residual activity for each of the following compounds.
1. Oc1ccc(-c2nc(-c3ccc(F)cc3)c(-c3ccncc3)[nH]2)cc1
2. Nc1n[nH]c2nnc(-c3c(-c4ccccc4)nn4ccccc34)cc12
3. CC#CC(=O)Nc1cc2c(Nc3ccc(F)c(Cl)c3)ncnc2cn1

## Result
1. 92
2. 91
3. 96

Need residual activity for each of these compounds.
1. COc1cc2ncnc(N3CCN(C(=O)Nc4ccc(Oc5ccccc5)cc4)CC3)c2cc1OC
2. CCN(CC)CCCCN1c2ccccc2Oc2ccc(Cl)cc21
3. COc1ccc(C(=O)Nc2sc3c(c2C(N)=O)CCCC3)cc1OC
4. CC(C)n1cnc2c(NCc3ccccc3)nc(NCCCO)nc21

## Result
1. 103
2. 107
3. 100
4. 102

## Task # query: residual activity of entry Cc1cc2ncc(-c3ccccc3)nc2cc1C
## Result 109

---

target-of-assay: Serine/threonine-protein kinase MRCK beta (Homo sapiens)
condition-info: at 10 µM
metric-name: residual activity (%)
Numbers only, in %.

Study these solved cases before continuing.
smiles-text: O=Nc1c(-c2c(O)[nH]c3ccccc23)[nH]c2ccccc12
target-of-assay: Serine/threonine-protein kinase MRCK beta (Homo sapiens)
measured-number: 103
//
smiles-text: CN(C)CCCn1cc(C2=C(c3c[nH]c4ccccc34)C(=O)NC2=O)c2ccccc21
target-of-assay: Serine/threonine-protein kinase MRCK beta (Homo sapiens)
measured-number: 40
//
smiles-text: COc1cc2ncnc(N3CCN(C(=O)Nc4ccc(Oc5ccccc5)cc4)CC3)c2cc1OC
target-of-assay: Serine/threonine-protein kinase MRCK beta (Homo sapiens)
measured-number: 87

For every listed record, write down its residual activity.
1. Cn1cc(/C=C2\C(=O)Nc3ccc(S(N)(=O)=O)cc32)c2ccccc21
2. O=C1NC(=O)/C(=C\c2ccc3nccnc3c2)S1

## Result
[87, 53]

---

target-of-assay: Death-associated protein kinase 3 (Homo sapiens)
condition-info: at 1 µM
metric-name: residual activity (%)
Give bare numbers, in %.

Solved cases (5 shown):
smiles-text: COc1cc2ncc(-c3ccccc3)nc2cc1OC
measured-number: 96
--
smiles-text: Ic1cccc(CSc2nnc(-c3ccncc3)o2)c1
measured-number: 107
--
smiles-text: O=C(Nc1cccc(Nc2nccc(Nc3cccc(C(F)(F)F)c3)n2)c1)C1CC1
measured-number: 84
--
smiles-text: CN(C)CCCn1cc(C2=C(c3c[nH]c4ccccc34)C(=O)NC2=O)c2ccccc21
measured-number: 62
--
smiles-text: O=C1NC(=O)c2cc(Nc3ccc(F)cc3)c(Nc3ccc(F)cc3)cc21
measured-number: 104

Provide residual activity values for the following items, in order.
1. O=c1c2ccccc2[nH]c(=S)n1CCN1CCC(=C(c2ccc(F)cc2)c2ccc(F)cc2)CC1
2. Nc1ccc2ncnc(NCCc3ccc(Oc4ccccc4)cc3)c2c1
3. Oc1c2ccccc2c2c3c(cccc13)N=N2

## Result
1: 75; 2: 111; 3: 87

Please give residual activity, item by item, for the list that follows.
1. CC#CC(=O)Nc1cc2c(Nc3ccc(F)c(Cl)c3)ncnc2cn1
2. O=c1cc(-c2cccc3c2Sc2ccccc2S3)oc(N2CCOCC2)c1
3. Cc1ccc(NC2=CC(=O)c3sc(C)nc3C2=O)cc1

## Result
[90, 104, 95]

---

target-of-assay: Homeodomain-interacting protein kinase 1 (Homo sapiens) (UniProt Q86Z02)
Sequence (Q86Z02 whole entry, looked up): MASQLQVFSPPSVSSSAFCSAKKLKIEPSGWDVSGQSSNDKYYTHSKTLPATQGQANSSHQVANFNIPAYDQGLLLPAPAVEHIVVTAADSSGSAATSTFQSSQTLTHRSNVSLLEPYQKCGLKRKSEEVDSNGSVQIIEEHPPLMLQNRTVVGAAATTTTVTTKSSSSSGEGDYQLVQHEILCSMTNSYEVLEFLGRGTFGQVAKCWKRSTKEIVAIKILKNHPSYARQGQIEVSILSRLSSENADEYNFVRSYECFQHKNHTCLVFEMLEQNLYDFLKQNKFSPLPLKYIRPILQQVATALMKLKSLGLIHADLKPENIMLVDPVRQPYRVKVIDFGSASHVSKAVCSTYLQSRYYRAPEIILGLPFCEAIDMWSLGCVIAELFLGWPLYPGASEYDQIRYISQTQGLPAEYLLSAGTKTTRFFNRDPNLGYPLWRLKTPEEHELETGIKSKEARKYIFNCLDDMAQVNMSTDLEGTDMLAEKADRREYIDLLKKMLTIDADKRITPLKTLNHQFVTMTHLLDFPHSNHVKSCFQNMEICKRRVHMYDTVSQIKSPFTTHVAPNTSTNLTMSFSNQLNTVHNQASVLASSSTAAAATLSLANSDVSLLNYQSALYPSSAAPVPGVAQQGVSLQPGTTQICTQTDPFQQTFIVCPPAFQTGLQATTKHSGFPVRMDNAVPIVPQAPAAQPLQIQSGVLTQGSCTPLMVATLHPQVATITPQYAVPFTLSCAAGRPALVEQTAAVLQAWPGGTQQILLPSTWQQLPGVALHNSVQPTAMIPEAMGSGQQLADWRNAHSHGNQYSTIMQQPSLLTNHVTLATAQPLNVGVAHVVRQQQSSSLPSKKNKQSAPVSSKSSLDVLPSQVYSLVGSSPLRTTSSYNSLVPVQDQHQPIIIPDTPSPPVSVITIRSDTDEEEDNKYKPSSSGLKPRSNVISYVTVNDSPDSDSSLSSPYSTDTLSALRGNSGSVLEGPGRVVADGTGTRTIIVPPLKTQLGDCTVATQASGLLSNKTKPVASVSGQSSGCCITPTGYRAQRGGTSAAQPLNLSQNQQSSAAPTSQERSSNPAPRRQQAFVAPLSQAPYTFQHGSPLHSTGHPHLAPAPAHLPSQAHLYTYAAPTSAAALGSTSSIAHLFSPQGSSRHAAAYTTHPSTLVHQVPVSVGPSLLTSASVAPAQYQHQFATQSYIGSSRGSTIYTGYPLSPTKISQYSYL
condition-info: at 10 µM
Description: Millipore: Percentage of residual kinase activity of HIPK1 at 10uM relative to control. Control inhibitor: Phosphoric acid* at 0.3uM. Buffer: 8 mM MOPS pH 7.0, 0.2 mM EDTA
What residual activity was measured for each of the following?
Answers are plain numbers, in %.

Some entries whose results are on file:
smiles-text: O=C1Nc2ccc(Br)cc2/C1=C\c1cc2c([nH]1)CCCC2
measured-number: 99

smiles-text: COc1ccc(C(=O)Nc2sc3c(c2C(N)=O)CCCC3)cc1OC
measured-number: 105

smiles-text: CCC(=O)Nc1ccc2ncnc(Nc3cccc(Br)c3)c2c1
measured-number: 105

smiles-text: CC[n+]1c(/C=C/N(C)c2ccccc2)n(-c2ccccc2)c2ccc(-c3nc4ccccc4s3)cc21
measured-number: 93

smiles-text: Nc1n[nH]c2nnc(-c3c(-c4ccccc4)nn4ccccc34)cc12
measured-number: 95

smiles-text: Cn1cc(/C=C2\C(=O)Nc3ccc(S(N)(=O)=O)cc32)c2ccccc21
measured-number: 93

smiles-text: Cc1nc2cc3nc(-c4cccs4)cnc3cc2n1C
measured-number: 106

smiles-text: Cn1cnc2cc3c(Nc4cccc(Br)c4)ncnc3cc21
measured-number: 105

smiles-text: NC(=O)c1ccc2[nH]c(-c3ccc(Oc4ccc(Cl)cc4)cc3)nc2c1
measured-number: 96

smiles-text: N#C/C(=C(\N)Sc1ccc(N)cc1)c1ccccc1C(F)(F)F
measured-number: 101

## Task Could you share which residual activity value was measured for COc1ccc(CNc2nc(N(CCO)CCO)nc3c2ncn3C(C)C)cc1 ?
## Result 88

---

target-of-assay: Ephrin type-A receptor 8 (Homo sapiens)
condition-info: at 1 µM
Please respond with reported residual activity for every item in the list.
Answers are plain numbers, in %.

See these solved cases before continuing.
smiles-text: O=C1NC(=O)c2cc(Nc3ccc(F)cc3)c(Nc3ccc(F)cc3)cc21
metric-name: residual activity
unit-name: %
measured-number: 87

smiles-text: Cc1ccc(NC2=CC(=O)c3sc(C)nc3C2=O)cc1
metric-name: residual activity
unit-name: %
measured-number: 89

smiles-text: CC(=O)O/N=C1\C(=C2\C(=O)Nc3cc(Br)ccc32)Nc2ccccc21
metric-name: residual activity
unit-name: %
measured-number: 84

Give one value of residual activity per listed compound.
1. O=c1cc(-c2cccc3c2Sc2ccccc2S3)oc(N2CCOCC2)c1
2. Oc1ccc(-c2nc(-c3ccc(F)cc3)c(-c3ccncc3)[nH]2)cc1
3. COc1ccc(C(=O)Nc2sc3c(c2C(N)=O)CCCC3)cc1OC
4. c1ccc(-c2n[nH]cc2-c2ccnc3ccccc23)nc1

## Result
108
93
107
95

---

target-of-assay: Mast/stem cell growth factor receptor Kit (Homo sapiens) (UniProt P10721)
Sequence (P10721 whole entry): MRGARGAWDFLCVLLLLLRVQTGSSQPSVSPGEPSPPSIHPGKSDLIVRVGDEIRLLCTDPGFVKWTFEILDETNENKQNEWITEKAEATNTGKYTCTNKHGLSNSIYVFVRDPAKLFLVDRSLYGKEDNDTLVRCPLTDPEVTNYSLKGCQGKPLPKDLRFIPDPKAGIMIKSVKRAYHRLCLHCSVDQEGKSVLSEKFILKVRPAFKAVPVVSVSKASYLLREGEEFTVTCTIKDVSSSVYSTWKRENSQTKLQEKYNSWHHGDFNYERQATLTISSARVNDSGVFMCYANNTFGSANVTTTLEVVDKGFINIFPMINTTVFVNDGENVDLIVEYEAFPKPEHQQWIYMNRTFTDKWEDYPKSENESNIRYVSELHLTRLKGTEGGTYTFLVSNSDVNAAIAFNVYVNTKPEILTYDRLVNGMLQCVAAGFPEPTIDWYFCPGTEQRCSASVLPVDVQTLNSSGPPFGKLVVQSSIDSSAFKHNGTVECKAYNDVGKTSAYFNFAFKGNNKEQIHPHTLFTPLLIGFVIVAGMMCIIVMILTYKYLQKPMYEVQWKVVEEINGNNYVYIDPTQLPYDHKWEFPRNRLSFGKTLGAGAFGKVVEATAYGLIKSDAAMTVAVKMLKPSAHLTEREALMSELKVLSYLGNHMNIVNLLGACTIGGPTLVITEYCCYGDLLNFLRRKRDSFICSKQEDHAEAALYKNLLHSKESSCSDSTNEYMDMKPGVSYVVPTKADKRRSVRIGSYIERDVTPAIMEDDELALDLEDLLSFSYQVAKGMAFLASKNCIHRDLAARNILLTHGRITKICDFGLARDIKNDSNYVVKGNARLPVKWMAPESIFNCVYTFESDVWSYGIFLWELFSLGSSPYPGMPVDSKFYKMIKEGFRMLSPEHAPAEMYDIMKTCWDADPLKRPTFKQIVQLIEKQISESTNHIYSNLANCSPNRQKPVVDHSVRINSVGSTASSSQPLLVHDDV
condition-info: at 10 µM
metric-name: residual activity (%)
One number for each entry, in %.

Below, each entry is followed by its recorded residual activity result.
molecule: COc1cc2ncnc(N3CCN(C(=O)Nc4ccc(Oc5ccccc5)cc4)CC3)c2cc1OC
target-of-assay: Mast/stem cell growth factor receptor Kit (Homo sapiens) (UniProt P10721)
residual activity (%): 7

molecule: O=C(O)c1ccc2c3c1cccc3c(=O)n1c3ccccc3nc21
target-of-assay: Mast/stem cell growth factor receptor Kit (Homo sapiens) (UniProt P10721)
residual activity (%): 119

molecule: Cc1nc(-c2ccccc2)c(-c2ccncc2)o1
target-of-assay: Mast/stem cell growth factor receptor Kit (Homo sapiens) (UniProt P10721)
residual activity (%): 98

molecule: CO[C@@H]1[C@H](N(C)C(=O)c2ccccc2)C[C@H]2O[C@]1(C)n1c3ccccc3c3c4c(c5c6ccccc6n2c5c31)C(=O)NC4
target-of-assay: Mast/stem cell growth factor receptor Kit (Homo sapiens) (UniProt P10721)
residual activity (%): 39

molecule: O=C1Nc2cc(Br)ccc2/C1=C1/Nc2ccccc2/C1=N\O
target-of-assay: Mast/stem cell growth factor receptor Kit (Homo sapiens) (UniProt P10721)
residual activity (%): 21

Can you give me residual activity for all of these, one by one?
1. Nc1n[nH]c2nnc(-c3c(-c4ccccc4)nn4ccccc34)cc12
2. CC(C)n1cnc2c(NCc3ccccc3)nc(NCCCO)nc21
3. CCOc1cc2ncnc(Nc3cccc(Br)c3)c2cc1OCC
4. CC(C)n1cnc2/c(=N/c3cccc(Cl)c3)nc(NCCO)[nH]c21

## Result
1. 108
2. 98
3. 101
4. 94

Batch request: residual activity per item, same order as input.
1. O=C1Nc2ccccc2/C1=C1/Nc2ccccc2/C1=N\OCCC(O)CO (configuration not stated)
2. CC(=O)O/N=C1\C(=C2\C(=O)Nc3cc(Br)ccc32)Nc2ccccc21
3. COc1ccc(S(=O)(=O)N(CCO)c2ccccc2CN(C)C/C=C/c2ccc(Cl)cc2)cc1
4. CN(C)c1ccc(/C=C2\C(=O)Nc3ccccc32)cc1
5. Nc1cccc(-c2cc3c(Oc4cccc(O)c4)ncnc3[nH]2)c1

## Result
[1, 32, 100, 4, 2]

Could you report residual activity for every entry in the following list?
1. Cn1nc2c3c(cccc31)C(=O)c1ccccc1-2
2. Cc1ccc(S(=O)(=O)/C=C/C#N)cc1
3. O=C1NC(=O)/C(=C/c2ccc3c(c2)OC(F)(F)O3)S1
4. Oc1ccc(Nc2nc(-c3ccc(Cl)cc3)cs2)cc1
5. Nc1ccc2ncnc(NCCc3ccc(Oc4ccccc4)cc3)c2c1
6. Nc1nc(Nc2ccc(S(N)(=O)=O)cc2)nn1C(=S)Nc1c(F)cccc1F

## Result
1: 95; 2: 114; 3: 102; 4: 76; 5: 95; 6: 66

Below are some molecules; for each one, tell me its residual activity.
1. Oc1ccc(-c2nc(-c3ccc(F)cc3)c(-c3ccncc3)[nH]2)cc1
2. COc1ccc(C(=O)Nc2sc3c(c2C(N)=O)CCCC3)cc1OC

## Result
1. 107
2. 87
